- Test system: B. divergens
- test-method-notes: Drug sensitivity assay, B. divergens in bovine erythrocytes (flow cytometry)
- Format: cell-based, Babesia divergens
- test-parameters: Babesia divergens, Erythrocyte; pre-treated with equimolar iron; B. divergens; 48 h; read-out: EC50 +Fe
pEC50: −log10 of the molar value.
metric: pEC50

Prompt line: Please look up its pEC50: CC(=O)N(O)CCCCCNC(=O)CCC(=O)N(O)CCCCCNC(=O)CCC(=O)N(O)CCCCCN [DFO, Deferoxamine, reference compound]
Response line: < 4.30

###

- Tested on: L. mexicana (amastigote)
- test-method-notes: Drug sensitivity assay, axenic L. mexicana amastigote (flow cytometry)
- Format: cell-based, Leishmania mexicana
- test-parameters: Leishmania mexicana; iron-free compound; L. mexicana (amastigote); 120 h; read-out: EC50 –Fe
Assign EC50 to each entry below.

Prompt line: Please look up its EC50: CC(=O)N(O)CCCCCNC(=O)CCC(=O)N(O)CCCCCNC(=O)CCC(=O)N(O)CCCCCN(CCCCCCCCCC[P+](c1ccccc1)(c1ccccc1)c1ccccc1)CCCCCCCCCC[P+](c1ccccc1)(c1ccccc1)c1ccccc1
Response line: 1600 nM

Prompt line: Similarly, CC(=O)N(O)CCCCCNC(=O)CCC(=O)N(O)CCCCCNC(=O)CCC(=O)N(O)CCCCCN [DFO, Deferoxamine, reference compound] ?
Response line: > 25000 nM
